- Test system: K562
- ASSAY_DETAILS: Cell cycle arrest in human K562 cells assessed as total cell levels at M4 phase at IC50 after 72 hrs by propidium iodide staining based flow cytometry (reference value: 0.50%)
- Assay type: functional
ENDPOINT: Activity
Note: state the figure and append the unit.

Some entries whose results are on file:
Given the entry COc1ccc(/C=C/C(=O)O[C@H]2C[C@]3(C=CC(=O)O3)O[C@H]2c2ccccc2)cc1 , report its measured Activity.
3.06%

Given the entry COc1ccc(/C=C/C(=O)O[C@H]2C[C@@]3(C=CC(=O)O3)O[C@@H]2c2ccccc2)cc1 , report its measured Activity.
1.35%

Given the entry O=C1C=C[C@@]2(C[C@H](OC(=O)/C=C/c3ccc([N+](=O)[O-])cc3)[C@H](c3ccccc3)O2)O1 , report its measured Activity.
33.19%

Given the entry O=C1C=C[C@@]2(C[C@H](O)[C@H](c3ccccc3)O2)O1 , report its measured Activity.
0.87%

Given the entry O=C1C=C[C@@]2(C[C@H](O)[C@@H](c3ccccc3)O2)O1 , report its measured Activity.
0.94%

Given the entry O=C1C=C[C@]2(C[C@H](OC(=O)/C=C/c3ccccc3)[C@@H](c3ccccc3)O2)O1 , report its measured Activity.
25.37%

Provide the reported Activity of each entry below, same order.
1. COc1ccc(/C=C/C(=O)O[C@H]2C[C@@]3(C=CC(=O)O3)O[C@H]2c2ccccc2)cc1
2. O=C1C=C[C@@]2(C[C@H](OC(=O)/C=C/c3ccc(F)cc3)[C@@H](c3ccccc3)O2)O1
3. O=C1C=C[C@]2(C[C@H](OC(=O)/C=C/c3ccc(F)cc3)[C@H](c3ccccc3)O2)O1

1. 2.89%
2. 2.31%
3. 4.05%

----------
- System: K562
- ASSAY_DETAILS: Cell cycle arrest in human K562 cells assessed as accumulation at G0/G1 phase at IC50 after 72 hrs by propidium iodide staining based flow cytometry (reference value: 38.48%)
- Assay type: functional
Lab note: cut-off is 30%. Strictly less in Activity is Y. Exactly 30% or more is N.

Recorded results for 4 molecules are shown here.
Find out if reported Activity for O=C1C=C[C@]2(C[C@H](OC(=O)/C=C/c3ccccc3)[C@H](c3ccccc3)O2)O1 is less than 30%
Y

Find out if reported Activity for O=C1C=C[C@]2(C[C@H](OC(=O)/C=C/c3ccc(F)cc3)[C@H](c3ccccc3)O2)O1 is less than 30%
Y

Find out if reported Activity for COc1ccc(/C=C/C(=O)O[C@H]2C[C@]3(C=CC(=O)O3)O[C@@H]2c2ccccc2)cc1 is less than 30%
Y

Find out if reported Activity for COc1ccc(/C=C/C(=O)O[C@H]2C[C@@]3(C=CC(=O)O3)O[C@H]2c2ccccc2)cc1 is less than 30%
N

More entries:
Find out if reported Activity for O=C1C=C[C@]2(C[C@H](OC(=O)/C=C/c3ccc([N+](=O)[O-])cc3)[C@@H](c3ccccc3)O2)O1 is less than 30%
N

Find out if reported Activity for O=C1C=C[C@@]2(C[C@H](OC(=O)/C=C/c3ccc([N+](=O)[O-])cc3)[C@@H](c3ccccc3)O2)O1 is less than 30%
N

Find out if reported Activity for O=C1C=C[C@@]2(C[C@H](OC(=O)/C=C/c3ccccc3)[C@H](c3ccccc3)O2)O1 is less than 30%
Y

Find out if reported Activity for O=C1C=C[C@@]2(C[C@H](OC(=O)/C=C/c3ccc(F)cc3)[C@H](c3ccccc3)O2)O1 is less than 30%
N

Find out if reported Activity for O=C1C=C[C@@]2(C[C@H](O)[C@H](c3ccccc3)O2)O1 is less than 30%
Y

----------
- Tested on: MDA-MB-231
- ASSAY_DETAILS: Cytotoxicity against human MDA-MB-231 cells assessed as reduction in cell viability after 72 hrs by MTT assay
- Assay type: functional, cell-based
- RUN_PARAMETERS: MDA-MB-231, 72 h
ENDPOINT: IC50

Provide the reported IC50 of each entry below, same order.
1. O=C1C=C[C@@]2(C[C@H](O)[C@@H](c3ccccc3)O2)O1
2. O=C1C=C[C@@]2(C[C@H](OC(=O)/C=C/c3ccc(F)cc3)[C@@H](c3ccccc3)O2)O1
3. COc1ccc(/C=C/C(=O)O[C@H]2C[C@@]3(C=CC(=O)O3)O[C@@H]2c2ccccc2)cc1
4. O=C1C=C[C@]2(C[C@H](OC(=O)/C=C/c3ccc([N+](=O)[O-])cc3)[C@H](c3ccccc3)O2)O1

> 100 µM
> 100 µM
> 100 µM
4.48 µM

Provide the reported IC50 of each entry below, same order.
1. O=C1C=C[C@]2(C[C@H](O)[C@@H](c3ccccc3)O2)O1
2. COc1ccc(/C=C/C(=O)O[C@H]2C[C@@]3(C=CC(=O)O3)O[C@H]2c2ccccc2)cc1

1.89 µM
2.69 µM

----------
Kindly state log10 of IC50 for each of the entries shown.
- Tested on: HeLa
- ASSAY_DETAILS: Cytotoxicity against human HeLa cells assessed as reduction in cell viability after 72 hrs by MTT assay
- Type: functional, cell-based
Please note: log10 values; quantity IC50; unit µM.

Some entries whose results are on file:
Given the entry O=C1C=C[C@]2(C[C@H](OC(=O)/C=C/c3ccc([N+](=O)[O-])cc3)[C@@H](c3ccccc3)O2)O1 , report its measured log10 of IC50.
0.35

Given the entry COc1ccc(/C=C/C(=O)O[C@H]2C[C@@]3(C=CC(=O)O3)O[C@@H]2c2ccccc2)cc1 , report its measured log10 of IC50.
0.56

Given the entry O=C1C=C[C@]2(C[C@H](OC(=O)/C=C/c3ccccc3)[C@@H](c3ccccc3)O2)O1 , report its measured log10 of IC50.
0.06

Given the entry O=C1C=C[C@]2(C[C@H](O)[C@@H](c3ccccc3)O2)O1 , report its measured log10 of IC50.
-0.47

Given the entry O=C1C=C[C@]2(C[C@H](OC(=O)/C=C/c3ccc(F)cc3)[C@@H](c3ccccc3)O2)O1 , report its measured log10 of IC50.
0.79

Provide the reported log10 of IC50 of each entry below, same order.
1. O=C1C=C[C@]2(C[C@H](OC(=O)/C=C/c3ccccc3)[C@H](c3ccccc3)O2)O1
2. O=C1C=C[C@@]2(C[C@H](OC(=O)/C=C/c3ccccc3)[C@@H](c3ccccc3)O2)O1
3. O=C1C=C[C@]2(C[C@H](OC(=O)/C=C/c3ccc(F)cc3)[C@H](c3ccccc3)O2)O1
4. O=C1C=C[C@]2(C[C@H](OC(=O)/C=C/c3ccc([N+](=O)[O-])cc3)[C@H](c3ccccc3)O2)O1
5. O=C1C=C[C@@]2(C[C@H](O)[C@@H](c3ccccc3)O2)O1
6. O=C1C=C[C@]2(C[C@H](O)[C@H](c3ccccc3)O2)O1
7. COc1ccc(/C=C/C(=O)O[C@H]2C[C@@]3(C=CC(=O)O3)O[C@H]2c2ccccc2)cc1
8. O=C1C=C[C@@]2(C[C@H](OC(=O)/C=C/c3ccc([N+](=O)[O-])cc3)[C@@H](c3ccccc3)O2)O1

1: 1.16; 2: -0.24; 3: 1.08; 4: 1.06; 5: 0.33; 6: 1.55; 7: 1.00; 8: 0.98

----------
- Tested on: HeLa
- ASSAY_DETAILS: Cytotoxicity against human HeLa cells assessed as reduction in cell viability after 72 hrs by MTT assay
- Type: functional, cell-based
Lab note: cut-off is 5 µM. Strictly less in IC50 is TRUE. Exactly 5 µM or more is FALSE.

Find out if reported IC50 for COc1ccc(/C=C/C(=O)O[C@H]2C[C@]3(C=CC(=O)O3)O[C@@H]2c2ccccc2)cc1 is less than 5 µM
TRUE

Find out if reported IC50 for COc1ccc(/C=C/C(=O)O[C@H]2C[C@]3(C=CC(=O)O3)O[C@H]2c2ccccc2)cc1 is less than 5 µM
FALSE

Find out if reported IC50 for O=C1C=C[C@@]2(C[C@H](O)[C@H](c3ccccc3)O2)O1 is less than 5 µM
TRUE

Find out if reported IC50 for O=C1C=C[C@@]2(C[C@H](OC(=O)/C=C/c3ccc(F)cc3)[C@@H](c3ccccc3)O2)O1 is less than 5 µM
TRUE

Find out if reported IC50 for O=C1C=C[C@@]2(C[C@H](OC(=O)/C=C/c3ccc([N+](=O)[O-])cc3)[C@H](c3ccccc3)O2)O1 is less than 5 µM
FALSE
